- RUN DESCRIPTION: clinical
- Format: in vivo, human
- CONDITION LABEL: human, in vivo, iv, 70 mg/m2, failed cases group, at the loading dose (70 mg/m^2); median ± standard deviation; SD; read-out: AUC24
- Procedure: A prospective, open-label pharmacokinetic study of caspofungin was performed at Wuhan Children's Hospital, Hubei Province. All designed procedures conformed to the legal requirements and the ethics committee of Wuhan Children's Hospital approved this study. […] We performed an opportunistic sampling strategy when a steady-state caspofungin concentration had been achieved. […] Then we recorded the dosing and infusion time as well as sampling time prospectively. […]
RECORDED ENDPOINT: AUC(0-t)
The answer should read as a number with its unit following.

Enquiry: Please report the recorded AUC(0-t) for CC[C@H](C)C[C@H](C)CCCCCCCCC(=O)N[C@H]1C[C@@H](O)[C@@H](NCCN)NC(=O)[C@@H]2[C@@H](O)CCN2C(=O)[C@H]([C@H](O)CCN)NC(=O)[C@H]([C@H](O)[C@@H](O)c2ccc(O)cc2)NC(=O)[C@@H]2C[C@@H](O)CN2C(=O)[C@H]([C@@H](C)O)NC1=O [caspofungin, Caspofungin] .
Return: 352 µg·h/mL
